In this section we review reported ΔTm at 1000 µM values for a set of compounds.
Target: GbpAHi (Haemophilus influenzae, UniProt P33950)
Construct: gene hbpA; soluble non-lipidated form; leader replaced by PelB; his-tag
Sequence (P33950 19-547): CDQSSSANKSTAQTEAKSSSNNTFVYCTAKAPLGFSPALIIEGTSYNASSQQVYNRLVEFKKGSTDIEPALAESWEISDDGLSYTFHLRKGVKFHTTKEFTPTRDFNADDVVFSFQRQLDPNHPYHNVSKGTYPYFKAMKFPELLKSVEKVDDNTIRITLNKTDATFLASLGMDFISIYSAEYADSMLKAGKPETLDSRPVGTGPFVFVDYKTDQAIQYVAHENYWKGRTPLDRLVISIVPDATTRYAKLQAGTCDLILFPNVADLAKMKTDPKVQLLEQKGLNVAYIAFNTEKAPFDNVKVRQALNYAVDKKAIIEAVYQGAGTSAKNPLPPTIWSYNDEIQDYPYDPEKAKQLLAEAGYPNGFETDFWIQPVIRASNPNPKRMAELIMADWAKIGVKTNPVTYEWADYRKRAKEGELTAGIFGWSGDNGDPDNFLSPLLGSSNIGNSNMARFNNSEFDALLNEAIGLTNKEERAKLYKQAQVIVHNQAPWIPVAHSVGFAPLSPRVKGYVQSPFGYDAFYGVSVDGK
Assay: Thermofluor thermal shift (Sypro orange)
Format: binding
Assay Readout: ΔTm at 1000 µM (°C)

N[C@@H](CCC(=O)N[C@@H](CSN=O)C(=O)NCC(=O)O)C(=O)O [S-nitrosoglutathione]: 7
CSC[C@H](NC(=O)CC[C@H](N)C(=O)O)C(=O)NCC(=O)O [S-methylglutathione]: 10.5
N[C@@H](CCC(=O)N[C@@H](CS)C(=O)NCC(=O)O)C(=O)O [GSH]: 12.5
N[C@@H](CCC(=O)N[C@@H](CSSC[C@H](N)C(=O)O)C(=O)NCC(=O)O)C(=O)O [glutathione cysteine disulfide]: 10
